Hi there, I'd appreciate the recorded Kd for every entry that follows.
Calls of active or inactive are those of the source.

Look up Kd with RAC-gamma serine/threonine-protein kinase (Homo sapiens, UniProt Q9Y243) for this molecule: Cc1cc2c(F)c(Oc3ncnn4cc(OC[C@@H](C)OC(=O)[C@H](C)N)c(C)c34)ccc2[nH]1 [BRIVANIB ALANINATE]
Sequence (Q9Y243 whole entry): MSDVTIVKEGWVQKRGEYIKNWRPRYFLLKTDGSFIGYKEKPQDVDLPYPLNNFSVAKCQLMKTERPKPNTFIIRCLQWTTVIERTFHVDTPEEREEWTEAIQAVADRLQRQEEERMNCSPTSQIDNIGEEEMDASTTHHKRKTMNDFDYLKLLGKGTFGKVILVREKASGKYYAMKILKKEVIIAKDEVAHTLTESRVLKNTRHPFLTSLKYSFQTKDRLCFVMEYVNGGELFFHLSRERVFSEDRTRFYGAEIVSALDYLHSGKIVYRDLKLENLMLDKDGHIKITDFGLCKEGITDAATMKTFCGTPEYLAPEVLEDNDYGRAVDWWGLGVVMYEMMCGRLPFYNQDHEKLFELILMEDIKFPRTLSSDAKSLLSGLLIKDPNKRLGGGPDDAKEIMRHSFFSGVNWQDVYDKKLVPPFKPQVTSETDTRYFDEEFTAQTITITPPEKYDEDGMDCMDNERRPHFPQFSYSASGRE
> 30 µM (inactive)

Look up Kd with RAC-gamma serine/threonine-protein kinase (Homo sapiens, UniProt Q9Y243) for this molecule: CO[C@H]1C[C@@H]2CC[C@@H](C)[C@@](O)(O2)C(=O)C(=O)N2CCCC[C@H]2C(=O)O[C@H]([C@H](C)C[C@@H]2CC[C@@H](OCCO)[C@H](OC)C2)CC(=O)[C@H](C)/C=C(\C)[C@@H](O)[C@@H](OC)C(=O)[C@H](C)C[C@H](C)/C=C/C=C/C=C/1C [EVEROLIMUS]
> 30 µM (inactive)

Look up Kd with RAC-gamma serine/threonine-protein kinase (Homo sapiens, UniProt Q9Y243) for this molecule: O=C(O)[C@]1(Cc2cccc(Nc3nccs3)n2)CC[C@@H](Oc2cccc(Cl)c2F)CC1 [MK-5108]
> 30 µM (inactive)

Look up Kd with RAC-gamma serine/threonine-protein kinase (Homo sapiens, UniProt Q9Y243) for this molecule: CN1CC[C@@H](c2c(O)cc(O)c3c(=O)cc(-c4ccccc4Cl)oc23)[C@@H]1CO
5.92 µM

Look up Kd with RAC-gamma serine/threonine-protein kinase (Homo sapiens, UniProt Q9Y243) for this molecule: C[C@@H]1CN(Cc2ccc(F)cc2)[C@@H](C)CN1C(=O)c1cc2c(C(=O)C(=O)N(C)C)cn(C)c2cc1Cl [TALMAPIMOD]
> 30 µM (inactive)

Look up Kd with RAC-gamma serine/threonine-protein kinase (Homo sapiens, UniProt Q9Y243) for this molecule: CNC(=O)c1cc(Oc2ccc(NC(=O)Nc3ccc(Cl)c(C(F)(F)F)c3)c(F)c2)ccn1 [REGORAFENIB]
> 30 µM (inactive)
